- tested-system: Human recombinant COX-2 enzyme (Homo sapiens, UniProt P35354)
- Sequence (P35354 18-604): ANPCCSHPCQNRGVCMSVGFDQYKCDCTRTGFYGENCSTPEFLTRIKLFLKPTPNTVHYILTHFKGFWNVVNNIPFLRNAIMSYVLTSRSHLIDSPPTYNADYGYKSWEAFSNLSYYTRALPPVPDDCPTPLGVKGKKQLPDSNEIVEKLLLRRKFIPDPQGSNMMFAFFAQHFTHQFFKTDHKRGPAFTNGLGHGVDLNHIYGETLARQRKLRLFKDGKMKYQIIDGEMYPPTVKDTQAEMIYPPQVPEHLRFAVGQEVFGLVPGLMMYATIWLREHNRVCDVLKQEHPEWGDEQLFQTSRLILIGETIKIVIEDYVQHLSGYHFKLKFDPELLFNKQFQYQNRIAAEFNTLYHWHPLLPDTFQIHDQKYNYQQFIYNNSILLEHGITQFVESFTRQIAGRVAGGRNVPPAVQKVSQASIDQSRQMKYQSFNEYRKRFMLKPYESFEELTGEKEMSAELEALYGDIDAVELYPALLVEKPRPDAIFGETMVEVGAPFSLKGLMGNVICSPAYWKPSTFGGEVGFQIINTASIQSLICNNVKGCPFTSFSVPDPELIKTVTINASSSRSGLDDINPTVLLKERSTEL
- experiment: COX-2 inhibitory activity assay (Cayman COX Fluorescent Inhibitor Screening Assay Kit)
- experimental-parameters: 15 min pre-incubation, arachidonic acid substrate, fluorescence 530/595 nm, triplicates
Quick reference for IC50 among some molecules

[[record]]
molecule = "COc1cc(O)cc(-c2cc(O)c(O)cc2C)c1"
quantity_measured = "IC50"
reported_value = "9.5 µM"


Entry COc1cc(O)cc(C2=C(C)C[C@H](O)C2=O)c1 [Compound 6, (S)-alternariphent A1] , system Human recombinant COX-2 enzyme (Homo sapiens, UniProt P35354): what IC50 was measured?
> 30 µM

Find IC50 (Human recombinant COX-2 enzyme (Homo sapiens, UniProt P35354)) for the entry "COc1cc(O)c(C(=O)O)c(-c2cc(O)c(O)cc2C)c1"
> 30 µM

State its IC50 on Human recombinant COX-2 enzyme (Homo sapiens, UniProt P35354): "COc1cc(O)c(C(=O)O)c(-c2cc(O)c3ncsc3c2C)c1"
> 30 µM

Report IC50 for "COC(=O)Cc1cc(O)cc2scnc12" tested on Human recombinant COX-2 enzyme (Homo sapiens, UniProt P35354).
> 30 µM

// lookup IC50 | system=Human recombinant COX-2 enzyme (Homo sapiens, UniProt P35354) | key= "COc1cc(O)c(C(=O)O)c(-c2c(C)cc(O)c3ncsc23)c1"
> 30 µM

----------
Entries and their IC50
- experiment: DPPH radical scavenging activity
- experimental-parameters: DPPH 0.1 mM in ethanol, 30 min at room temperature in the dark, absorbance at 517 nm, triplicates; read-out: DPPH Free Radical Scavenging Activity (IC50)

Here are 2 compounds together with their reported answers.
[[record]]
compound = "COc1cc(O)c(C(=O)O)c(-c2c(C)cc(O)c3ncsc23)c1"
reported_value = "> 1000 µM"

[[record]]
compound = "COc1cc(O)c(C(=O)O)c(-c2cc(O)c3ncsc3c2C)c1"
reported_value = "> 1000 µM"


Entry COc1cc(O)cc(C2=C(C)C[C@H](O)C2=O)c1 [Compound 6, (S)-alternariphent A1] : reported IC50 = ?
> 1000 µM

# query: IC50 of entry "COC(=O)Cc1cc(O)cc2scnc12"
> 1000 µM
